assaySystem: Carbonic anhydrase 2 (Homo sapiens) (UniProt P00918)
assayText: CAII small-molecule binders, profiling panel, biochemical, small-molecule microarray, Alexa647-labelled CAII (AID 1122)
testContext: CAII-A647 binding fluorescence, higher = more signal
# maps each entry to its composite z-score

{"columns": ["compound", "composite z-score"],
 "data": [
  ["COCCCNC(=O)[C@@]1(Cc2ccccc2N=[N+]=[N-])N=C(c2ccc(OCCCO)cc2)O[C@H]1c1ccccc1N=[N+]=[N-]", 0.58],
  ["CCC(CC)C(O)C1C=CC2C(=O)N(C)C(=O)C2N1Nc1ccccc1 (stereo not drawn)", 0.652],
  ["COC(=O)[C@@]1(Cc2ccccc2)[C@H]2c3cc(C(=O)N(C)C)n(CCSCCO)c3C[C@H]2CN1C(=O)c1ccccc1", 0.801],
  ["[N-]=[N+]=NCc1ccccc1C[C@@]1(C(=O)NCC(O)CO)N=C(c2ccc(OCCCO)cc2)O[C@@H]1c1ccccc1N=[N+]=[N-] (stereo partly drawn)", 0.69],
  ["CCCC=C(CCC)[C@@H](NS(=O)(=O)c1cccs1)c1ccc(C(=O)OC)cc1", 0.748],
  ["O=C(NCc1ccccc1)[C@@H]1c2ccccc2C(=O)N(CC23CC4CC(CC(C4)C2)C3)[C@H]1c1ccc(CO)cc1", 0.467],
  ["CCOC1=C2C(CN(S(=O)(=O)c3ccc(C)cc3)C2c2ccc(C)cc2)C2C(=O)N(c3ccccc3)C(=O)C2C1 (stereo not drawn)", 0.676],
  ["Cc1ccc(S[C@]2(C(=O)NCCN3CCOCC3)CC(=O)N(Cc3ccccc3Cl)[C@@H]2c2ccc(CO)cc2)cc1", 0.686]
]}

* * *

assayText: cell viability in Huh7 cells, primary screen, cytotoxicity control for HCV replication inhibitor project, CellTiter-Glo luminescence, basal, 48 h (AID 1143);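 further: Huh7 hepatoma cells carrying a hepatitis C replication reporter with no stimulus; test concentration not given here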
testContext: Huh7 HCV replicon, higher = more signal, called active from +8 up or from −8 down

{"columns": ["smilesStructure", "z-score"],
 "data": [
  ["COc1ccc(CCNC(=O)[C@@]2(Sc3ccc(C)cc3)CC(=O)N(C3CCCCC3)[C@@H]2c2ccc(CO)cc2I)cc1", -2.23],
  ["COc1ccc([Si](C)(C)[C@@H]2[C@@H](CC(=O)N3Cc4ccccc4C[C@H]3CO)O[C@]3(C(=O)N(C)c4c(Br)cc(C)cc43)[C@H]2C)cc1", -5.91],
  ["C[C@]1(C(=O)NC2CC2)c2ccccc2C(=O)N(Cc2cc(C(F)(F)F)cc(C(F)(F)F)c2)[C@H]1c1ccc(CO)cc1", -1.38],
  ["CCCC[C@H]1OB(O)C[C@H]2C1=C(COc1ccccc1)C[C@H]1C(=O)N(C)C(=O)[C@H]12", -0.348]
]}

* * *

assayText: small-molecule microarray binders of probe aShh, primary screen, biochemical, biotinylated probe, 635/667 nm fluorescence (AID 1114);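 further: probe is biotin-labelled aShh protein from a stem cell growth factor screen; measures binding of labelled protein to compounds printed on the slide; score merges feature fluorescence at 667 nm with signal-to-noise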
testContext: higher = more signal
Returns one of rule met or rule not met; rule met when composite z-score is >= -0.2.

{"columns": ["compound", "class"],
 "data": [
  ["O=C1OCCC/C=C\\[C@H]2OC34C=CCN(Cn5nnc6ccccc65)C(=O)[C@H]3N(CCCCCCO)C(=O)[C@@H]4C12 (some centres not stated)", "rule met"],
  ["COc1ccc([Si](C)(C)[C@H]2[C@H](CCO)O[C@@]3(C(=O)N(C)c4c(Br)cc(C)cc43)[C@@H]2C)cc1", "rule met"],
  ["COc1ccc(CCNC(=O)[C@@]2(Sc3ccc(C)cc3)CC(=O)N(C3CCCCC3)[C@@H]2c2ccc(CO)cc2I)cc1", "rule met"],
  ["C#CCN(CC=C(C)C)[C@H](CO)c1ccccc1", "rule not met"]
]}
